refractive index values, listed per item
Assay: refractive index (Na D-line) (dimensionless); xn = mol fraction of the nth substance listed
Conditions: 298.15 K; 101.32 kPa; Liquid; x2 = 0.2
Please reply with the value in numeric form only.

Please look up its refractive index: CCCCCl [1-chlorobutane] + CCCCO
1.3984

Please look up its refractive index: CCCCCl [1-chlorobutane] + CO
1.3927

Please look up its refractive index: CCCCCl [1-chlorobutane] + CCO
1.3937

Please look up its refractive index: CCCCCl [1-chlorobutane] + CCCO
1.3962

====

refractive index values, listed per item
Experiment: refractive index (Na D-line) (dimensionless); xn = mol fraction of the nth substance listed
Details: 288.15 K; 101.32 kPa; Liquid; x2 = 0.7
Please reply with the value in numeric form only.

Here's what some known entries look like.
{"columns": ["COMPOUND", "REPORTED RESULT"],
 "data": [
  ["CCCCCl [1-chlorobutane] + CCCO", 1.3934],
  ["CCCCCl [1-chlorobutane] + CCCCO", 1.4022],
  ["CCCCCl [1-chlorobutane] + CCO", 1.3807]
]}

Next compound, refractive index to be filled in.
Please look up its refractive index: CCCCCl [1-chlorobutane] + CO
1.3679
